- PROTOCOL_TEXT: ATG_Ets_CIS: Attagene CIS-FACTORIAL HepG2 Assay for human Erythroblast Transformation Specific (ETS) (AID 2282941)
- CONDITION_SET: HepG2 ETS cis-reporter transcription, actives raise or lower the signal
Calls of active or inactive are those of the source. Rule for the calls: active = hit-call score of the fitted dose curve at least 0.9, where 1 is the maximum; inactive = score below 0.9.
Write down the outcome that applies. Available outcomes: Yes (active), No (inactive)

> print(dat)
                                   compound  category
1                        Oc1ccccc1-c1ccccc1        No
2  CCCN(CCC)c1c([N+](=O)[O-])cc(S(N)(=O)=O)cc1[N+](=O)[O-]        No

Answer briefly: the call reported for CCNc1nc(Cl)nc(NC(C)C)n1 in this assay.
No

Answer briefly: the call reported for CC1COC(Cn2cncn2)(c2ccc(Oc3ccc(Cl)cc3)cc2Cl)O1 (stereo not given) in this assay.
No

Answer briefly: the call reported for CC1=C(C(=O)Nc2ccccc2)SCCO1 in this assay.
No

Answer briefly: the call reported for CCOC(=O)C(Cl)Cc1cc(-n2nc(C)n(C(F)F)c2=O)c(F)cc1Cl (stereo not given) in this assay.
No

Answer briefly: the call reported for CS/C(C)=N/OC(=O)N(C)SN(C)C(=O)O/N=C(\C)SC in this assay.
No

Answer briefly: the call reported for CCOP(=S)(OCC)SCn1c(=O)oc2cc(Cl)ccc21 in this assay.
Yes

Answer briefly: the call reported for N#Cc1cc(Br)c(O)c(Br)c1 in this assay.
No

Answer briefly: the call reported for CC(C)Oc1cc(-n2nc(C(C)(C)C)oc2=O)c(Cl)cc1Cl in this assay.
No

Answer briefly: the call reported for COc1ccc(C(c2ccc(OC)cc2)C(Cl)(Cl)Cl)cc1 in this assay.
No

###

- PROTOCOL_TEXT: CCTE_Shafer_MEA_acute_burst_percentage_mean: CCTE's Neural Acute Assay for Percentage of Spikes in a Burst, Shafer Lab (AID 2284017);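 note: curve fitted for loss of signal so potency reflects decreased burst percentage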
Activity calls are given as the source filed them. The calls were made as follows: active = hit-call score of the fitted dose curve at least 0.9, where 1 is the maximum; inactive = score below 0.9.
MEASUREMENT_LABEL: AC50

> print(dat)
                                   compound     measured.value
1              CON(C)C(=O)Nc1ccc(Cl)c(Cl)c1   8.54 µM (active)
2  Cc1c(F)c(F)c(COC(=O)C2C(/C=C(\Cl)C(F)(F)F)C2(C)C)c(F)c1F (configuration not stated)   0.24 µM (active)
3            COP(=S)(OC)Oc1nc(Cl)c(Cl)cc1Cl  0.102 µM (active)
4    COc1ccc(C(c2ccc(OC)cc2)C(Cl)(Cl)Cl)cc1   19.9 µM (active)
5                          CCCCNC(=O)OCC#CI     20 µM (active)

What measured AC50 goes with CC(C)(C)c1ccc(CSc2cnn(C(C)(C)C)c(=O)c2Cl)cc1 ?
2.67 µM (active)

###

- Read-out: Lipoprotein lipase (LPL), LPL (gene 4023)
- PROTOCOL_TEXT: LTEA_HepaRG_LPL: Life Technologies and Expression Analysis (LTEA) Assay for Lipoprotein lipase (LPL) using HepaRG (AID 2283515)
- CONDITION_SET: mRNA level, 48 h; actives raise or lower the signal
- Method: LTEA_HepaRG is a cell based, multiplexed-readout assay that uses HepaRG, a human liver cell line, with measurements taken at 48 hours after chemical dosing on a 96-well plate.LTEA_HepaRG_LPL is one of 102 assay component(s) measured in the LTEA HepaRG cell culture assay. It is a marker of Steatosis.Data from the assay component LTEA_HepaRG_LPL was analyzed into 1 endpoint. […]
Activity calls are given as the source filed them. The calls were made as follows: active = hit-call score of the fitted dose curve at least 0.9, where 1 is the maximum; inactive = score below 0.9.
Write down the outcome that applies. Available outcomes: 1.0 (active), 0.0 (inactive)

> print(dat)
                                   compound  category
1  C#CCOS(=O)OC1CCCCC1Oc1ccc(C(C)(C)C)cc1 (centres undefined)       1.0
2          COP(N)(=O)SC (centres undefined)       0.0
3  Cc1c(F)c(F)c(COC(=O)C2C(/C=C(\Cl)C(F)(F)F)C2(C)C)c(F)c1F (centres undefined)       0.0

Answer briefly: the call reported for O=C(O)c1nc(Cl)ccc1Cl in this assay.
0.0
